Experiment: self-splicing fitness, log relative to wild type (ln ratio); higher = more splicing; Tetrahymena group I intron in knt gene, E. coli kanamycin selection, DiMSum; sequences stand for … in CUCUCU…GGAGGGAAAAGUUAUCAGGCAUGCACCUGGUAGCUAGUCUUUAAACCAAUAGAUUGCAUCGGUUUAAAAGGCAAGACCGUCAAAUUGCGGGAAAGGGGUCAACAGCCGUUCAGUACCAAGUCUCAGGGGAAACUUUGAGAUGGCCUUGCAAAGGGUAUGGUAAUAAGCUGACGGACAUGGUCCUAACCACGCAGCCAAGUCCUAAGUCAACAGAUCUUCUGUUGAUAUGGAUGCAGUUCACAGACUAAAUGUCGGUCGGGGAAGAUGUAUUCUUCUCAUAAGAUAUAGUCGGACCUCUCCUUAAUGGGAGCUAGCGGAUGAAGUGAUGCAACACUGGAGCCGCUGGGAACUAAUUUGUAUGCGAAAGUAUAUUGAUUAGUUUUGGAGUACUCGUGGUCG;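 also: selection with 25 µg/mL kanamycin versus none on LB agar overnight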
Conditions: 37 °C
Assign class by self-splicing fitness (ln): not lower than -1 means true (1); lower than -1 means false (0).

Request: Threshold query (self-splicing fitness (ln) >= -1) on `ACCUAGCAAUAUUACGAUCC`
Response: false (0)

Request: Could you tell me if the measured self-splicing fitness (ln) of `GAUAAGCAAUAUUACGCUUU` reaches -1 or more?
Response: false (0)

Request: Hi team, for `CAUUAGCAAUAUUACGGCUC` , is the recorded self-splicing fitness (ln) at or above -1?
Response: false (0)

Request: State whether the measured self-splicing fitness (ln) reaches -1, counting equality as reaching it, for `AAGGAGCAAUAUUACGCGAU`
Response: false (0)

Request: Decide: is the reported value of self-splicing fitness (ln) for `AUGGAGCAAUAUUACGAGAU` equal to or greater than -1?
Response: false (0)

Request: Could you please find out whether `ACUGAGCAAUAUUACGAGCA` has self-splicing fitness (ln) that meets -1 or exceeds it?
Response: false (0)

Request: Does the sequence `GGAAAGCAAUAUUACGAUGU` have recorded self-splicing fitness (ln) that is -1 or more?
Response: true (1)

Request: In plain terms: is recorded self-splicing fitness (ln) at least -1 for `AACCAGCAAUAUUACGGAAC` ?
Response: false (0)

Request: Could you verify whether the entry `GCUAAGCAAUAUUACGAAAA` shows self-splicing fitness (ln) of no less than -1?
Response: false (0)

Request: Answer whether self-splicing fitness (ln) of `CGCUAGCAAUAUUACGCCCU` is greater than or equal to -1.
Response: true (1)

Request: Has `UUCCAGCAAUAUUACGCCUU` a recorded self-splicing fitness (ln) greater than or equal to -1?
Response: true (1)

Request: Could you please find out whether `UCGAAGCAAUAUUACGUACU` has self-splicing fitness (ln) that meets -1 or exceeds it?
Response: false (0)

Request: Record `UGCAAGCAAUAUUACGUUCA` ; criterion: self-splicing fitness (ln) no lower than -1. Met?
Response: true (1)

Request: Does `ACACAGCAAUAUUACGCCAG` have a reported self-splicing fitness (ln) of at least -1?
Response: false (0)

Request: Confirm if self-splicing fitness (ln) reported for the sequence `UGAAAGCAAUAUUACGGCCC` is -1 or above.
Response: true (1)

Request: Record `CGGUAGCAAUAUUACGGUCU` ; criterion: self-splicing fitness (ln) no lower than -1. Met?
Response: true (1)

These measurements were taken from the supplement of paper PMC7877785.
